pIC50: −log10 of the molar value.
Parameter 'readout' = pIC50; parameter 'system' = TrkA (Homo sapiens).
Sequence (P04629 33-796): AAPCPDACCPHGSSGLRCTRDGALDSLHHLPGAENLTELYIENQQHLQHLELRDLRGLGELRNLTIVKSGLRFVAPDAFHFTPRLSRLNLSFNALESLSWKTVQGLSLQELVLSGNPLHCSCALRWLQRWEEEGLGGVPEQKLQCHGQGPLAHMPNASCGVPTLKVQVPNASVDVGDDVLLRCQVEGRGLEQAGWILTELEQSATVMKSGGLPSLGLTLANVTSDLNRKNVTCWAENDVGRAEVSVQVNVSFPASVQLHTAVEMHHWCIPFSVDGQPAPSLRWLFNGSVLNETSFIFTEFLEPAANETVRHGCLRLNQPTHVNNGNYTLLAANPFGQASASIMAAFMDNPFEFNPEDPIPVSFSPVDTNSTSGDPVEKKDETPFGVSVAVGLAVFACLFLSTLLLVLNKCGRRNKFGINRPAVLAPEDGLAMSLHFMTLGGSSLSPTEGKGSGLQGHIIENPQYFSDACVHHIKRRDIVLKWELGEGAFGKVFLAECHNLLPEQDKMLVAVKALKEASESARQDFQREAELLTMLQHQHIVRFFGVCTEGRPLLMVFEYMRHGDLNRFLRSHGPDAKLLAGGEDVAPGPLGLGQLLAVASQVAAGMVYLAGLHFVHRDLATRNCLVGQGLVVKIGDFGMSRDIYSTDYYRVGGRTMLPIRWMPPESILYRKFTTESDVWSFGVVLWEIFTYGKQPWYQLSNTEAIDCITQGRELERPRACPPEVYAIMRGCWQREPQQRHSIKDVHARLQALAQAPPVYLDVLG

Exam item: Which pIC50 value is on record for O=C1NC2(CC2)COc2ncc(F)cc2[C@@H]2CCON2c2ccn3ncc1c3n2 [WX002B] ?
Marked response: < 6.00

New cases:
Exam item: pIC50 for CCN1C[C@@H]2Oc3ncc(F)cc3[C@@H]3CCON3c3ccn4ncc(c4n3)C(=O)N[C@@H]2C1 [WX015B] ?
Marked response: < 6.00

Exam item: Entry O=C1NC2(CC2)COc2ccc(F)cc2[C@@H]2CCON2c2ccn3ncc1c3n2 [WX003B] please
Marked response: < 6.00
